Reported normalized growth is given for each of the following compounds.
assaySummary: chemical genetic growth profiling, strain panel (AID 1159580);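 further: tested at 20 µM; growth read once vehicle control cultures reached saturation at 30 °C; 1 = growth at the plate median or of vehicle wells; lower values mean less growth of the strain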
conditionSummary: S. cerevisiae deletion strains, growth OD, locus YIR030C, strain dcg1, stronger effect = lower value
Hit rate of the full screen: of about 5,500 compounds, about 2,000 (36%) were called active. Another 18% or so got no clear call; they are omitted. The list shows a part of the results.
Give a plain numeric answer without units written out.

compound	measuredProperty	number
CCCCCCCCCCCCCCCCCCOCC(O)CO (stereo unspecified)	normalized growth	1
CN1CCN(CCC=C2c3ccccc3Sc3ccc(S(=O)(=O)N(C)C)cc32)CC1	normalized growth	0.98
CC[C@H]1OC(=O)[C@H](C)[C@@H](O[C@H]2C[C@@](C)(OC)[C@@H](O)[C@H](C)O2)[C@H](C)[C@@H](O[C@@H]2O[C@H](C)C[C@H](N(C)C)[C@H]2O)[C@](C)(O)C[C@@H](C)[C@@H]2N[C@@H](COCCOC)O[C@H]([C@H]2C)[C@]1(C)O	normalized growth	1.02

Task item: Looking for the measured normalized growth of `O=C(CCBr)N1CCN(C(=O)CCBr)CC1` , can you help?
Reply: 1

Task item: Please report the recorded normalized growth for `OCCN1CCN(CCCN2c3ccccc3Sc3ccc(C(F)(F)F)cc32)CC1` .
Reply: 0.985

Task item: Name the reported normalized growth value associated with the compound CC(N)C(O)c1ccc(O)c(O)c1 (stereo unspecified)
Reply: 0.993

Data credit: PubChem BioAssay AID1159580
